# target-or-test-system: Brain/CB1 (Mus musculus, UniProt P47746)
# Sequence (P47746 whole entry): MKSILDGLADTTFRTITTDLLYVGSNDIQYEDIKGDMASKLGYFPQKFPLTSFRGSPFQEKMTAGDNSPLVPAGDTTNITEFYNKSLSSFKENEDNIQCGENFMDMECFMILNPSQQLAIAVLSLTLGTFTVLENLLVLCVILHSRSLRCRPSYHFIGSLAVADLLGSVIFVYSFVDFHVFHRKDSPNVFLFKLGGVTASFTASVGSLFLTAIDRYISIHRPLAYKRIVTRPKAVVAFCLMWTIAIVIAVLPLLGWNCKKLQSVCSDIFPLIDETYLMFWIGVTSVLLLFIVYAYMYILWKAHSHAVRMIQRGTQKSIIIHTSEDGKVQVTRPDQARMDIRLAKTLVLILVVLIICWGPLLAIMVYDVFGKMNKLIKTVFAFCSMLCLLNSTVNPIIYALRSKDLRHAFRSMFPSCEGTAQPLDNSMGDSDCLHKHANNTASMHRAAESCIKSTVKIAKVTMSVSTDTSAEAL
# measurement-description: Functional GTPγS binding, Brain/CB1
assay-metric: IC50 (nM)
Value expressed in nM; do not type the unit.

Below, each entry is followed by its recorded IC50 result.
compound	assay-metric	observed-result
N/C(=N\C(=N\S(=O)(=O)c1ccc(C(F)(F)F)cc1)N1CCC(c2ccccc2)C(c2ccc(Cl)cc2)=N1)c1ccc(F)cc1 (centres unmarked) [Compound 10u]	IC50	107
NC(=O)C(Cc1ccccc1)N/C(=N/S(=O)(=O)c1ccc(C(F)(F)F)cc1)N1CCC(c2ccccc2)C(c2ccc(Cl)cc2)=N1 (single isomer, unassigned) [Compound 33a]	IC50	423

Let us examine a further case.
Incoming: Recorded IC50 for CC(C)(C)/C(N)=N/C(=N/S(=O)(=O)c1ccc(C(F)(F)F)cc1)N1CCC(c2ccccc2)C(c2ccc(Br)cc2)=N1 (centres unmarked) [Compound 10x] , please?
Outgoing: 35
